Reference for the values: a melting point compilation (Tetko et al.; mined from patent text by program, amines drawn as free bases though some values may be those of a salt)

Reported Property: melting point

Return value of melting point for input CCn1c(C)nc2cc(Sc3cccc4cnccc34)c([N+](=O)[O-])cc21 , no commentary.
236 to 242 °C

Others:
Return value of melting point for input COc1ccc(OCc2cccc(C(=O)O)c2)cc1Cc1cnc(N)nc1N , no commentary.
140 °C

---

A collection of molecules and their measured melting point

Return value of melting point for input N=C(Nc1ccccc1-c1ccccc1)N1CCOCC1 , no commentary.
153 to 154 °C

Return value of melting point for input CC#CC(C)(C)NC(=O)C(Oc1cc(Cl)nc(Cl)c1)SC (stereo unspecified) , no commentary.
141 to 142 °C

Return value of melting point for input CSc1ccc(C=CC(=O)c2ccc(Br)cc2)cc1 , no commentary.
161 °C

Return value of melting point for input OCCN1CCN(Cc2ccc(O)c3ncccc23)CC1 , no commentary.
123 to 124 °C

Return value of melting point for input CCOc1ccc(C[C@@H](NC(=O)[C@H]2CC[C@H](C(C)C)CC2)C(=O)O)cc1 , no commentary.
149 to 151 °C

Now consider the entry below.
Return value of melting point for input Cc1cc(-n2ccnc2)c2cccc(OCc3c(Cl)ccc(S(=O)(=O)N4CCC[C@H]4C(=O)NCC4CCN(CCCCO)CC4)c3Cl)c2n1 , no commentary.
112 °C

---

A collection of compounds and their measured melting point

Here are 3 compounds together with their reported answers.
Return value of melting point for input O=C1CN2Cc3cc(OCCCC(=O)N(CCO)CC4CCCCC4)ccc3N=C2N1 , no commentary.
223 to 224 °C

Return value of melting point for input CS(=O)(=O)c1ccc(C2=C(c3ccccc3)CC2)cc1 , no commentary.
73 to 75 °C

Return value of melting point for input COC(C)c1ccc(-c2ccc(O)cc2)cc1 (single isomer, unassigned; (+)) , no commentary.
174 to 175 °C

Others:
Return value of melting point for input Cc1cc(C(=O)NC2CC2)ccc1N1CCN(C(=O)OC(C)(C)C)CC1 , no commentary.
111 to 115 °C

Return value of melting point for input COc1cc(N2CCC(N3CCN(C)CC3)CC2)ccc1Nc1ncc2ccc(-c3ccccc3S(=O)(=O)N(C)C)n2n1 , no commentary.
198 to 205 °C

---

A collection of compounds and their measured melting point

Return value of melting point for input CN(C)S(=O)(=O)c1cn(C)c2cc(C(F)(F)F)ccc2c1=O , no commentary.
221 to 223 °C

Return value of melting point for input CC1OC(C)(C)c2cc(-c3ccc(C#N)n3C)ccc2N1C(=O)OCC1c2ccccc2-c2ccccc21 (stereo not given) , no commentary.
63 to 64 °C

Return value of melting point for input O=c1cc(-c2nnn[nH]2)oc2cc(COc3cccc(OCc4ccc5ccccc5n4)c3)ccc12 , no commentary.
246 °C

Return value of melting point for input CC[C@]12CC[C@H]3[C@@H](CC(=C(Br)Br)C4=CC(=O)CC[C@@H]43)[C@@H]1CCC2=O , no commentary.
149 to 153 °C

Now consider the entry below.
Return value of melting point for input CCc1c(OC)nc2nc(C(N)=O)cn2c1C , no commentary.
256 to 259 °C

---

A collection of compounds and their measured melting point

Here are 8 compounds together with their reported answers.
Return value of melting point for input CCOC(=O)c1c(CN(CC)CC)nc2sc3c(c2c1-c1ccc(OC)c(OC)c1)CCN(C(=O)NC)C3 , no commentary.
153 to 155 °C

Return value of melting point for input Cc1cc(=O)oc2c(C)c3c(cc12)CCCO3 , no commentary.
162 to 163 °C

Return value of melting point for input CC(C)(C)NCCOp1oc2c(C(C)(C)C)cc(C(C)(C)C)cc2c2cc(C(C)(C)C)cc(C(C)(C)C)c2o1 , no commentary.
135 to 138 °C

Return value of melting point for input CCCCCN1CCC(n2nc(-c3c(-c4ccccc4)nn4ccccc34)ccc2=O)CC1 , no commentary.
106 °C

Return value of melting point for input NC(=O)c1ncn2c1CN=C(c1ccccc1Br)c1cc(F)ccc1-2 , no commentary.
298 to 299 °C

Return value of melting point for input C=CCc1cccc2c(=O)cc(-c3c(F)cccc3F)oc12 , no commentary.
84 to 86 °C

Return value of melting point for input Cc1cc(CCC(=O)O)nc(-c2nc(=O)c3ccccc3s2)c1 , no commentary.
245 to 246 °C

Return value of melting point for input COCCc1nc2c(N)nc3ccccc3c2n1CC(C)(C)CNC(=O)c1ccccc1 , no commentary.
103 to 125 °C

Now consider the entry below.
Return value of melting point for input O=C1c2ccc(Cl)cc2C(O)N1c1ccc2ccc(Cl)nc2n1 (centres undefined) , no commentary.
220 to 230 °C
